Numbers sourced from PubChem BioAssay (NCATS).

# System: DFO2036
# Procedure Summary: qHTS profiling for inhibitors of Plasmodium falciparum proliferation (AID 504749); note: nearly all actives have a fitted effect of over 60% in size
# Condition Summary: P. falciparum in erythrocytes, SYBR Green DNA, 72 h; series mostly up to 28.7 µM
Inconclusive results are not listed. Activity calls are given as the source filed them. Calls come from the whole dose curve; as a rule, active = well fitted inhibition curve with a large enough effect; inconclusive = small, poorly fitted or top-dose-only effect; inactive = flat fitted curve, though single readings scatter.
Hello, when you answer, please use one of the following outcomes: active, inactive

- Compound: "O=C1[C@@H]2C[C@@H]3C[C@H]1C[C@@](O)(C3)C2"
  Category Label: "inactive"
- Compound: "N#C/C(=C1/SCC(c2ccccc2Cl)S1)n1ccnc1 (configuration not stated)"
  Category Label: "inactive"
- Compound: "C[C@@H](O)[C@@H]1C(=O)N2C(C(=O)O)=C([C@H]3CCCO3)S[C@H]12"
  Category Label: "inactive"
- Compound: "CC12C=CC(=O)C=C1[C@@H](F)CC1C2C(O)CC2(C)C1CC[C@]2(O)C(=O)CO (some centres not stated)"
  Category Label: "inactive"
- Compound: "C/C=C1/NN(CCCN2CCN(c3cccc(Cl)c3)CC2)C(=O)N1CCOc1ccccc1"
  Category Label: "inactive"

Field: outcome | Entry: `CNC1=CN(O)C(c2ccccc2)=c2cc(Cl)ccc2=N1`
active

# repeat for `O=C(O)[C@H]1C[C@@H](CP(=O)(O)O)CCN1`
inactive

Also OCC(O)C(O)C(O)C(O)CO (configuration not stated) ?
inactive

Next entry: `Cc1ccc(Nc2ncccc2C(=O)O)cc1C`
inactive

Another compound to look at: CNC1C(O)C(OC2C(N)CC(N)C(OC3OC(CN)=CCC3N)C2O)OCC1(C)O (configuration not stated)
inactive

Ok, now Nc1nc2[nH]cc(CCc3ccc(C(=O)NC(CCC(=O)O)C(=O)O)cc3)c2c(=O)[nH]1 (configuration not stated)
active

Query CCCCCCCCCCCC(=O)OCC(O)C1OCC(O)C1O (configuration not stated) next
inactive

Request: Cc1ccc(/C=C2/C(=O)C3(C)CCC2C3(C)C)cc1 (configuration not stated)
inactive

Then what about the compound CNC1C(O)C(OC2C(NC(=O)C(O)CN)CC(N)C(OC3OC(CN)C(O)C(O)C3O)C2O)OCC1(C)O (configuration not stated) ?
inactive

Also, CCOC(=O)C(CCc1ccccc1)NC(C)C(=O)N1Cc2cc(OC)c(OC)cc2CC1C(=O)O (configuration not stated) please.
inactive

---

# Test system: CP265
# Procedure Summary: qHTS profiling for inhibitors of Plasmodium falciparum proliferation (AID 504749); note: nearly all actives have a fitted effect of over 60% in size
# Condition Summary: P. falciparum in erythrocytes, SYBR Green DNA, 72 h; series mostly up to 28.7 µM
Records with an inconclusive call do not appear. The source made the active and inactive calls. Calls come from the whole dose curve; as a rule, active = well fitted inhibition curve with a large enough effect; inconclusive = small, poorly fitted or top-dose-only effect; inactive = flat fitted curve, though single readings scatter.
Please answer using one outcome listed in active, inactive

- Molecule: "CCC(C)C(N)C(=O)O (configuration not stated)"
  Category Label: "inactive"
- Molecule: "CCC(C(=O)O)C1OC(C(C)C(O)C(C)C(=O)C(CC)C2OC3(C=CC(O)C4(CCC(C)(C5CCC(O)(CC)C(C)O5)O4)O3)C(C)CC2C)C(C)CC1C (configuration not stated)"
  Category Label: "active"
- Molecule: "COc1cccc2c1C(=O)c1c(O)c3c(c(O)c1C2=O)C[C@@](O)(C(=O)CO)C[C@@H]3OC1CC(N)C(O)C(C)O1 (some centres not stated)"
  Category Label: "active"
- Molecule: "C[C@@H]1CCN(C(=O)[C@H](CCCNC(=N)N)NS(=O)(=O)c2cccc3c2NC[C@H](C)C3)[C@@H](C(=O)O)C1"
  Category Label: "inactive"
- Molecule: "CCCC(=O)O[C@]1(C(=O)COC(C)=O)CC[C@H]2C3C[C@H](F)C4=CC(=O)C=CC4(C)[C@@]3(F)[C@@H](O)CC21C (some centres not stated)"
  Category Label: "inactive"

Please find the next molecule below.
Fill in: this test's call for CCCCN1CC(O)C(O)C(O)C1CO (configuration not stated) is ___
inactive
